The values you see were collected from patent US20230117034A1.

Target: CDK12 (nuclear staining in CAL-120 cells) (Homo sapiens, UniProt Q9NYV4)
Construct: endogenous in cells; host or cells: CAL-120 human breast cancer cells (DSMZ ACC 459)
Sequence (Q9NYV4 whole entry): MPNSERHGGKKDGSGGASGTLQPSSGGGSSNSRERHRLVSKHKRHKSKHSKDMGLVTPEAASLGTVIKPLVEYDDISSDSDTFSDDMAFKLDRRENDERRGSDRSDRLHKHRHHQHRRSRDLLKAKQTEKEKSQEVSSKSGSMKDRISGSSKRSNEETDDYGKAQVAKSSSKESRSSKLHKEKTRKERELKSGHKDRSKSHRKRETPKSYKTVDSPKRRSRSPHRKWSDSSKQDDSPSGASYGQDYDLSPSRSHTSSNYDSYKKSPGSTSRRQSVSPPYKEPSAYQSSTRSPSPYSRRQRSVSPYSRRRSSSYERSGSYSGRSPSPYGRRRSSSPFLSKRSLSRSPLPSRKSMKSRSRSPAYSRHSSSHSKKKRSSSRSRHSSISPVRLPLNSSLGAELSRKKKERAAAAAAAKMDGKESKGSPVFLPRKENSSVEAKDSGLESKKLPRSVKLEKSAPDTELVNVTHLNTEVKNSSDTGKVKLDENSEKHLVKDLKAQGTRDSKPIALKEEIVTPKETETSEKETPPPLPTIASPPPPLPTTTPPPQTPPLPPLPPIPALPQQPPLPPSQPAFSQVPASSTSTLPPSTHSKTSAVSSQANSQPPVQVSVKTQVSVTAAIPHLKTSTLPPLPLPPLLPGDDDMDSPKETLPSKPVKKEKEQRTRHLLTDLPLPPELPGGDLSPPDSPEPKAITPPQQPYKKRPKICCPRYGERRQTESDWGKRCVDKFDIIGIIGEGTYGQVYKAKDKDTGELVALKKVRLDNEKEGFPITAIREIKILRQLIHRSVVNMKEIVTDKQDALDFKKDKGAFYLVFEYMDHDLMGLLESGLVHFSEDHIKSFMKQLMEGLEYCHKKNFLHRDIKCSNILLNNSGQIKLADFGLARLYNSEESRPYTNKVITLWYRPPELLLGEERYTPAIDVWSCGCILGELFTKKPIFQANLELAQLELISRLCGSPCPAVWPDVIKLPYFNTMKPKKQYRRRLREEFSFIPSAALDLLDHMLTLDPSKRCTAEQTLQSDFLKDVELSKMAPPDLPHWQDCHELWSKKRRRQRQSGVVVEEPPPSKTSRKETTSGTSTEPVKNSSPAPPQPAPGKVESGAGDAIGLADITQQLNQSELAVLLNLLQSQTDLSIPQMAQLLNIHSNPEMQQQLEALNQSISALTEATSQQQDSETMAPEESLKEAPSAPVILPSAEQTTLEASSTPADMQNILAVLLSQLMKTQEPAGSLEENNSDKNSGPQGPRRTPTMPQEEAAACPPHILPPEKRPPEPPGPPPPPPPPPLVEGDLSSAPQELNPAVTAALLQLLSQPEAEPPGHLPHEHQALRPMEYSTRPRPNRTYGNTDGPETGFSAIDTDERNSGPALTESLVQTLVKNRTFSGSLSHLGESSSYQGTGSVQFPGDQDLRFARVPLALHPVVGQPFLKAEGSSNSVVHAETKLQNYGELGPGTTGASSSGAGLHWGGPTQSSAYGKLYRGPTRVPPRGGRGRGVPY
Sequence (O75909 whole entry partner): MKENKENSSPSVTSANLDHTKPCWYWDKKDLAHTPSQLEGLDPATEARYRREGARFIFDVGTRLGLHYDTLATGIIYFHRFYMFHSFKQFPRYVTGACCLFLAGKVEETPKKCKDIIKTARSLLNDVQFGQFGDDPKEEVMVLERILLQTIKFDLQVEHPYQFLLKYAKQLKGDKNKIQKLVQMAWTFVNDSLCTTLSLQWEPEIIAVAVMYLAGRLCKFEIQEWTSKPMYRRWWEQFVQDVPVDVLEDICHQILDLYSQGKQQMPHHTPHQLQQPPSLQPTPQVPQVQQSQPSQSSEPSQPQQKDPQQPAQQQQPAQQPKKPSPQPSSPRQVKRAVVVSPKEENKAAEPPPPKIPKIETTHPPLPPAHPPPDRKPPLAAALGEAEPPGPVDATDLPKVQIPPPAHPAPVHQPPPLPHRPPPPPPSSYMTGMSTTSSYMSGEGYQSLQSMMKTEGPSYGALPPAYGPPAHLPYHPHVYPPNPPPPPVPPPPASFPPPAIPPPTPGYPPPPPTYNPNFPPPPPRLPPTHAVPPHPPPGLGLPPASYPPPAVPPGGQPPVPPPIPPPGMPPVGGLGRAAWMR
Assay: CDK12 nuclear protein level: immunofluorescence/high content analysis (CAL-120)
Assay type: cell-based
Conditions: CAL-120 cells, 24 h, immunofluorescence; 50% reduction of nuclear CDK12 staining intensity; median; read-out: CDK12 degradation IF, DC50- [mol/l] (median)
The entries below come with measured log10 of DC50 values attached.
On a log10 scale: recorded DC50, unit nM.

# annotated cases, reported log10 of DC50 shown
Cc1cc2nc(CNc3nc(N(C)CC(C)(C)O)nc4c(Br)cnn34)[nH]c2cc1C [Example 343]	0.55
COc1cccc2nc(CNc3nc(N4CCOCC4)nc4c(-c5ccnnc5)cnn34)[nH]c12.O=C(O)C(F)(F)F [Example 439]	0.67
Fc1ccc2[nH]c(CNc3nc(N4CCOCC4)nc4c(CC(F)(F)F)cnn34)nc2c1 [Example 308]	0.69
CC1(C)CN(c2nc(NCc3nc4ccccc4[nH]3)n3ncc(Br)c3n2)CCN1 [Example 216]	0.52

Request the reported log10 of DC50 associated with Cn1cc(-c2cnn3c(NCc4nc5cc(Cl)c(Cl)cc5[nH]4)nc(N4CCOCC4)nc23)cn1 [Example 419]
1.59

Give the measured log10 of DC50 of Cc1cc2nc(CNc3nc(N4CC5CCC(C4)N5)nc4c(C5CC5)cnn34)[nH]c2cc1C [Example 326] .
0.68

Fill in the blank: the reported log10 of DC50 of CN1CCN(c2nc(NCc3nc4cc(Cl)ccc4[nH]3)n3ncc(Br)c3n2)CC1 [Example 163] is ____.
-0.48

Name the recorded log10 of DC50 for CC1(N)CCN(c2nc(NCc3nc4ccccc4[nH]3)n3ncc(Br)c3n2)CC1 [Example 290] .
1.33

Form field: reported log10 of DC50 of Fc1cc2nc(CNc3nc(N4CCOCC4)nc4c(C(F)(F)F)cnn34)[nH]c2cc1F [Example 333]
0.36

I'd like to know its log10 of DC50. The molecule in question is Fc1c(Cl)ccc2[nH]c(CNc3nc(N4CCOCC4)nc4c(Br)cnn34)nc12 [Example 372]
0.39

* * *

Molecular target: CDK9/CycT1 (Homo sapiens, UniProt P50750)
Construct: Recombinant full-length His-tagged human CDK9 and CycT1; purchased Life Technologies PV4131; host or cells: insect cells
Sequence (P50750 whole entry): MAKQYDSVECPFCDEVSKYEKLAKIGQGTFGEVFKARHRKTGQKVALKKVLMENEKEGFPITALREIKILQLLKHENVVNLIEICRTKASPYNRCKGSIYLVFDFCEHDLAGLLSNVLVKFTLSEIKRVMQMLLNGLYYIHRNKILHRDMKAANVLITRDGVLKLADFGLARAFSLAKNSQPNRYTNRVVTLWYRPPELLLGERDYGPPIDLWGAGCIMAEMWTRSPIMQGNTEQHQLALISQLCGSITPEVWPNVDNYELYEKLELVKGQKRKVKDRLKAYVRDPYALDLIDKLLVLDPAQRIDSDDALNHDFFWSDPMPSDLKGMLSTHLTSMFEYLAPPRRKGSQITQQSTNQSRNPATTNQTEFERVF
Sequence (O60563 whole entry partner): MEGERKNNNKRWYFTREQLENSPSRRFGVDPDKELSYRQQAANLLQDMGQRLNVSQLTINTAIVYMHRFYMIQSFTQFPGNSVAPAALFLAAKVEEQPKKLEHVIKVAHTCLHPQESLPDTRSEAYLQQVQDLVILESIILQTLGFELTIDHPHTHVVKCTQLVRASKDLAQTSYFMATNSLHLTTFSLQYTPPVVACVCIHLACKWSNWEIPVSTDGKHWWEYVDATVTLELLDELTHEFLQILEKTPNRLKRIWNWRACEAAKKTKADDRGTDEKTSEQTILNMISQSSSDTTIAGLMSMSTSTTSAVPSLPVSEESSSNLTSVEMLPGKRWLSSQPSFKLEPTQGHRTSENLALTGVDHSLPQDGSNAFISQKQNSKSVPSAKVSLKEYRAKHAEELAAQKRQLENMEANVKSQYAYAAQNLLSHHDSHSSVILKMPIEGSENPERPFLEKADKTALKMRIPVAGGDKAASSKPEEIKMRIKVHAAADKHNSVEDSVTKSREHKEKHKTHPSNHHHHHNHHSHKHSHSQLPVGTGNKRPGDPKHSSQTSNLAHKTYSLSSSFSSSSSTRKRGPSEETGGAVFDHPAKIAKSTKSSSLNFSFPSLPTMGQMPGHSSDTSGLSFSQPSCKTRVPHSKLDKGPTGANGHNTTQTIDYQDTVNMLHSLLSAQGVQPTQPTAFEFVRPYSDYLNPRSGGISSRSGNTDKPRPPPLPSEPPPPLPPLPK
Test: CDK9/CycT1 high ATP kinase assay (TR-FRET, 2 mM ATP)
Type: biochemical
Conditions: 2 mM ATP (high ATP); median; read-out: CDK9/CyclinT1, 2 mM ATP (high ATP), IC50 (median)
REPORTED ENDPOINT: IC50

Sample N[C@@H]1[C@@H]2C[C@H]1CN(c1nc(NCc3nc4ccccc4[nH]3)n3ncc(Br)c3n1)C2 [Example 289] — what was its IC50?
> 20 µM

* * *

Target: CDK12 (nuclear staining in CAL-120 cells) (Homo sapiens, UniProt Q9NYV4)
Construct: endogenous in cells; host or cells: CAL-120 human breast cancer cells (DSMZ ACC 459)
Experiment: CDK12 nuclear protein level: immunofluorescence/high content analysis (CAL-120)
Assay type: cell-based
Conditions: ratio of IC50 CDK12 high ATP kinase assay to DC50 CDK12 degradation (IF, CAL-120)
Experimental: In the context of the present invention, the term “DC50 CDK12” refers to the DC50 values obtained according to the assay described in this section (7) herein below, i.e. the DC50 values for the degradation of CDK12. Plates are then incubated for 24 h at 37° C. in an humidified incubator and fixed with 4% PFA for 10 min. […] Nuclear and cytoplasmic intensity as well as the nuclear/cytoplasmic intensity ratio is determined by automated image analysis using custom generated scripts (MetaXpress). […]
REPORTED ENDPOINT: (IC50 CDK12 high ATP) to (Degradation DC50 CDK12) ratio
Please give the numeric answer without any surrounding text.

# count of solved cases: 4
CN1CCN(c2nc(NCc3nc4cc(C(F)(F)F)ccc4[nH]3)n3ncc(Br)c3n2)CC1	1251
Fc1ccccc1-c1cnc(CNc2nc(N3CCOCC3)nc3c(Br)cnn23)[nH]1	478
CCc1cnn2c(NCc3nc4c(F)c(F)ccc4[nH]3)nc(N3CCOCC3)nc12	2425
C[C@@H]1CCCCN1c1nc(NCc2nc3ccccc3[nH]2)n2ncc(Br)c2n1	140

Tell me the measured (IC50 CDK12 high ATP) to (Degradation DC50 CDK12) ratio of Fc1cc2nc(CNc3nc(N4CC5CCC(C4)N5)nc4c(Br)cnn34)[nH]c2cc1Cl , please.
546

Which (IC50 CDK12 high ATP) to (Degradation DC50 CDK12) ratio is reported for this molecule? CN1CCN(c2nc(NCc3nnc(-c4cccc(F)c4)[nH]3)n3ncc(Br)c3n2)CC1
1140

Entry FC(F)(F)c1cnn2c(NCc3nc4ccccc4[nH]3)nc(N3CCOCC3)nc12 has what (IC50 CDK12 high ATP) to (Degradation DC50 CDK12) ratio?
186

Using the record for C[C@@H]1CN(c2nc(NCc3nc4ccccc4[nH]3)n3ncc(Br)c3n2)CCN1C , report its (IC50 CDK12 high ATP) to (Degradation DC50 CDK12) ratio.
3939
